# Protocol text: yeast display, Sf9 membrane polyspecificity reagent, FACS + sequencing; frameworks hold sequencing errors

| Chain sequence | polyreactivity (PSR sort gate) |
| --- | --- |
| QVQLVESGGGLVQAGGSLRLRCAASGSIFGGNAMGWYRQAPGKEREMVATITDRGSSTYYADSVKGRFTISRDNAKNTGYLQMNSLKPEDTAVYYCATAFPDVPEHDYWGQGTQVTVSS | low polyreactivity |
| QVQLVESGGGLVQAGGSLRLSCAASGSIFDDYAMGWYRQAPGKERELVAAISSSGTSTYYADSVKGRFTISRDNAKNTVYLQMNSLKPEDTAGYYCAARSAILKSGYLMDYWGQGTQVTVSS | low polyreactivity |

Data origin: the nanobody polyreactivity screen of Harvey et al. (2022)
